- test: plasmodial surface anion channel blockers, osmotic lysis – cell-based, P. falciparum Indochina, OD700, 2 h, primary screen (AID 1155);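 also: lysis reports solute entry through the parasite surface anion channel PSAC; channel blockers reduce lysis of infected cells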
- measurement-setup: P. falciparum Indochina infected erythrocytes; higher = more signal, called active from +8 up or from −8 down unless noted
Response key: met means z-score >= 0.3; not met means z-score < 0.3.

Examples with answers:
molecule="CN1CCC(c2ccc(CO)cc2)=CC1C1CC1 (centres undefined)" label_value="not met"
molecule=COC(=O)[C@H]1C(=O)c2ccccc2O[C@@](C(=O)OC)(c2ccccc2)[C@@H]1c1ccccc1 label_value="not met"
molecule=COC(=O)[C@@]1(Cc2ccccc2)[C@H]2c3cc(C(=O)N(C)C)[nH]c3C[C@H]2CN1C(=O)c1ccccc1 label_value=met
molecule="C=C(CC1(C(C)NP(=O)(c2ccccc2)c2ccccc2)CC1)c1ccccc1 (centres undefined)" label_value=met
molecule="CN1CCC(c2ccc(CO)cc2)=CC1c1cccs1 (centres undefined)" label_value=met
molecule="CCCc1cc2c(n1Cc1cccc(Cl)c1)C(C)C1CN(C(=O)c3ccccc3)C(C)(C(=O)OC)C21 (centres undefined)" label_value=met

Task: Determine whether measured z-score meets or exceeds 0.3 for CCCC[C@@H]1C[C@H]1[C@@H](NP(=O)(c1ccccc1)c1ccccc1)c1ccc(Cl)cc1
Output: met

Task: State whether the measured z-score reaches 0.3, counting equality as reaching it, for C[C@H]1O[C@H]2C3=C(C(=O)[C@@H]4O[C@@H]4[C@@H]3O)[C@@H]1[C@@H]1[C@@H](C)OC=C3[C@@H](O)[C@H]4O[C@H]4C(=O)[C@]312
Output: not met

Task: Decide: is the reported value of z-score for OCc1ccc(C2=CC(c3cccs3)N(Cc3cccc(OC(F)(F)F)c3)CC2)cc1 (centres undefined) equal to or greater than 0.3?
Output: met

---

- tgt: Dickkopf-related protein 1 (Homo sapiens) (UniProt O94907)
- Sequence (O94907 whole entry, looked up): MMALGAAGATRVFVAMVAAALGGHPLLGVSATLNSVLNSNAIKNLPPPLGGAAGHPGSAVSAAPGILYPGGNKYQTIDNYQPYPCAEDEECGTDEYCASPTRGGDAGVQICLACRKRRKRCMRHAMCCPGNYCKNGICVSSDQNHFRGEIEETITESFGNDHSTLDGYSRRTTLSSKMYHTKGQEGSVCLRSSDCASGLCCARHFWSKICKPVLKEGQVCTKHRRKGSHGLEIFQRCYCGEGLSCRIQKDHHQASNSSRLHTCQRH
- test: small molecules binding DKK1 protein – biochemical, small-molecule microarray, 635 nm fluorescence scan, primary screen (AID 1106);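 also: score merges emission near 667 nm with signal to noise over three replicate slides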
- measurement-setup: higher = more signal
Decide by composite z-score: equal to or exceeding 0.3 means T, less means F.

Solved cases (2 shown):
compound=COC(=O)[C@@]1(Cc2ccccc2)[C@H]2c3cc(C(=O)N(C)C)[nH]c3C[C@H]2CN1C(=O)c1ccccc1 tgt="Dickkopf-related protein 1 (Homo sapiens) (UniProt O94907)" label_value=F
compound=CCCC[C@@H]1C[C@H]1[C@@H](NP(=O)(c1ccccc1)c1ccccc1)c1ccc(Cl)cc1 tgt="Dickkopf-related protein 1 (Homo sapiens) (UniProt O94907)" label_value=F

Task: Answer whether composite z-score of COc1cc2c(cc1O)C(C)N(C)CC2 (stereo not given) is greater than or equal to 0.3.
Output: F

---

- test: optical density change of DRC41 E. coli – strain DRC41, OD650, 24 h, E. coli filamentation project, primary screen (AID 1093);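 also: MC1000 strain lacking acrAB efflux and sulA so SOS filamentation is blocked; test concentration not given here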
- measurement-setup: E. coli DRC41 growth; higher = more signal, called active from +8 up or from −8 down unless noted
Would you kindly list z-score for each of these compounds?
One number for each entry.

Take a look at these entries with their results.
compound="C=C(CC1(C(C)NP(=O)(c2ccccc2)c2ccccc2)CC1)c1ccccc1 (stereo not given)" metric_name=z-score result=-0.74
compound=C[C@H]1O[C@H]2C3=C(C(=O)[C@@H]4O[C@@H]4[C@@H]3O)[C@@H]1[C@@H]1[C@@H](C)OC=C3[C@@H](O)[C@H]4O[C@H]4C(=O)[C@]312 metric_name=z-score result=-0.529
compound=COC(=O)[C@H]1C(=O)c2ccccc2O[C@@](C(=O)OC)(c2ccccc2)[C@@H]1c1ccccc1 metric_name=z-score result=0.161
compound=C=C(CC1(CNP(=O)(c2ccccc2)c2ccccc2)CC1)c1ccccc1 metric_name=z-score result=0.0375

For every item below, please supply its z-score.
1. COC(=O)NCC=Cc1nc(CCC=CC(=O)O[C@H]2CC3CC(=O)O[C@@H](C=CCC(C)C)C[C@@H]4CC[C@H](C)[C@@H](C[C@@H](OC)C[C@H](C2)O3)O4)co1
2. CN1CCc2nc(CO)c(CO)cc2C1
3. CCCc1cc2c(n1Cc1cccc(Cl)c1)C(C)C1CN(C(=O)c3ccccc3)C(C)(C(=O)OC)C21 (stereo not given)
4. COc1cc2c(cc1O)C=[N+](C)CC2

Output:
1. 0.162
2. 0.077
3. -0.449
4. -0.695

Parameters: items (list). Returns: z-score for each item.
1. CCOC(=O)[C@H]1CC=C2C(=O)Oc3ccc(Br)cc3[C@@H]21
2. CCc1cc2c(nc1CC)CCN(CCC(C)=NOC)C2

Output:
1. -0.369
2. -0.0797
